biological target: B1R receptor of the rat (rB1R) (Rattus norvegicus, UniProt P97583); construct: expressed in transfected cells; host or cells: CHO K1 cells; assay: Functional investigation on the bradykinin 1 receptor (B1R), FLIPR Ca2+ assay, rB1R cells; format: cell-based; conditions: 10 μM test substance; CHO K1 cells with rat B1R; agonist Des-Arg9 bradykinin; % of maximum achievable inhibition; 10 µM
Give true (1) when the value for B1R antagonism, rat [10 μM] % inhibition is at least 90%. Give false (0) when it is less.

Example results:
O=C(CCn1ccc2ccc(N3Cc4cccc(Cl)c4C3=O)cc21)N1CCC2(CC1)CCN(c1ccncc1)CC2 = true (1)
COc1cc(C)c(S(=O)(=O)Nc2cccc3ccn(CC(=O)N4CCC5(CC4)CCN(c4ccncc4)CC5)c23)c(C)c1 = true (1)
O=C(CCn1ccc2cccc(N3Cc4cccc(Cl)c4C3=O)c21)N1CCC2(CC1)CCN(c1ccncc1)CC2 = false (0)

API: the following record is the query input.
# input Confirm if B1R antagonism, rat [10 μM] % inhibition reported for the molecule COc1cc(C)c(S(=O)(=O)Nc2ccc3ccn(CC(=O)N4CCC(CCN5CCCC5)CC4)c3c2)c(C)c1 is 90% or above.
# output false (0)

----------
Molecular target: B1R receptor of the rat (rB1R) (Rattus norvegicus)
Construct: expressed in transfected cells; host or cells: CHO K1 cells
Sequence (P97583 1-337): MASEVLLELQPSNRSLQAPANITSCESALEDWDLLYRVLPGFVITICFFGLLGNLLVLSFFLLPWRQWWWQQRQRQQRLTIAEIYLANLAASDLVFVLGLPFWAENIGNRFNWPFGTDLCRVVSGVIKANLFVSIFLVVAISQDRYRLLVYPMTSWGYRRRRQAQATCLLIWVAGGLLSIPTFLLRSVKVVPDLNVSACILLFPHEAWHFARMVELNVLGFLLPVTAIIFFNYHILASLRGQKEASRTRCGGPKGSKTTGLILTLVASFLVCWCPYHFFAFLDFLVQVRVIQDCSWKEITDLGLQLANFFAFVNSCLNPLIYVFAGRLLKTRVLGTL
Assay: Functional investigation on the bradykinin 1 receptor (B1R), FLIPR Ca2+ assay, rB1R cells
Assay type: cell-based
Conditions: CHO-K1, 10 μM test substance; CHO K1 cells with rat B1R; agonist Des-Arg9 bradykinin; % of maximum achievable inhibition; read-out: B1R antagonism, rat [10 μM] % inhibition
measurement_type: inhibition at 10 µM

# count of solved cases: 10
COc1cc(C)c(S(=O)(=O)Nc2cccc3ccn(CC(=O)N4CCC5(CC4)CCN(Cc4ccccc4)C5=O)c23)c(C)c1 = 101%
O=C(Cn1ccc2ccc(N3CCn4c(c(Cl)c5ccccc54)C3=O)cc21)N1CCC2(CC1)CCN(c1ccncc1)CC2 = 54%
O=C(Cn1ccc2ccc(N3Cc4cccc(Cl)c4C3=O)cc21)N1CCC2(CCN(c3ccncc3)CC2)C1 = 92%
COc1cc(C)c(S(=O)(=O)Nc2cccc3ccn(CC(=O)NCCN4CCC(c5cccs5)(N(C)C)CC4)c23)c(C)c1 = 68%
O=C(Cn1ccc2cccc(N3Cc4cccc(Cl)c4C3=O)c21)N1CCC2(CC1)CCN(c1ccncc1)CC2 = -21%
Cc1cc(S(=O)(=O)Nc2cccc3ccn(CC(=O)N4CCC5(CC4)CCN(c4ccncc4)CC5)c23)c(C)cc1Cl = 95%
COc1cc(C)c(S(=O)(=O)Nc2cccc3ccn(CCC(=O)NC4CCC(c5ccccc5)(N5CCC5)CC4)c23)c(C)c1 (centres unmarked) = 62%
COc1cc(C)c(S(=O)(=O)Nc2ccc3ccn(CC(=O)N4CCC(CNC(=O)c5ccncc5)(N5CCN(C)CC5)CC4)c3c2)c(C)c1 = 84%
COc1cc(C)c(S(=O)(=O)NCc2cccc3ccn(CC(=O)N4CCC5(CC4)CCN(c4ccncc4)CC5)c23)c(C)c1 = 103%
CN(CCC1CCC(c2ccccc2)(N(C)C)CC1)C(=O)CCn1ccc2ccc(N3Cc4cccc(Cl)c4C3=O)cc21 (centres unmarked) = 63%

# context switch: different molecule, same inhibition at 10 µM
# input Data request, read-out inhibition at 10 µM, for COc1cc(C)c(S(=O)(=O)Nc2ccc3ccn(CCC(=O)N(C)CCCN4CCN(c5ccncc5)CC4)c3c2)c(C)c1
# output 74%

----------
Target: human B1R receptor (hB1R) (Homo sapiens)
Construct: expressed in transfected cells; host or cells: CHO K1 cells
Sequence (P46663 whole entry): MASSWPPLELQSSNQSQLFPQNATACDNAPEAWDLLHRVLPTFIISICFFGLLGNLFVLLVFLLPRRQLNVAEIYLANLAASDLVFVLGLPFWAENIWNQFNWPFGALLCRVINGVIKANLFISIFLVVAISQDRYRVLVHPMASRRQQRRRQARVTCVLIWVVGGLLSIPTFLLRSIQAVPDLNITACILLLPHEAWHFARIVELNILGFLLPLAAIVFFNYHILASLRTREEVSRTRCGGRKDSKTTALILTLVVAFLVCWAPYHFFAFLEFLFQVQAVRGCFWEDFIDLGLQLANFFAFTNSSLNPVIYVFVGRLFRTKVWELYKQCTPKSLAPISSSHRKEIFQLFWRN
Assay: Functional investigation on the bradykinin 1 receptor (B1R), FLIPR Ca2+ assay, hB1R cells
Format: cell-based
Settings: CHO-K1, 10 μM test substance; CHO K1 cells with human B1R; agonist Lys-Des-Arg9 bradykinin; % of maximum achievable inhibition; read-out: B1R antagonism, human [10 μM] % inhibition
Text: The agonistic or antagonistic action of substances can be quantified on the bradykinin 1 receptor (B1R) of the human and rat species with ectopically expressing cell lines (CHO K1 cells) and with the aid of a Ca^2+-sensitive dye (Fluo-4) using a fluorescent imaging plate reader (FLIPR). […] The agonistic or antagonistic action of substances can be determined on the bradykinin 1 receptor (B1R) of the human and rat species with the following assay. […]
measurement_type: inhibition at 10 µM (%)
# unit: % | format: bare number

COc1cc(C)c(S(=O)(=O)Nc2cccc3ccn(CC(=O)N4CCC5(CC4)C(=O)NCN5c4ccccc4)c23)c(C)c1 = 68
COc1cc(C)c(S(=O)(=O)Nc2cccc3ccn(CC(=O)N4CCC5(CC4)CCN(c4ccncc4)CC5)c23)c(C)c1 = 100
O=C(Cn1ccc2ccc(N3CCn4ccc(Cl)c4C3=O)cc21)N1CCC2(CC1)CCN(c1ccncc1)CC2 = 93

Now, please, on to the next molecule.
# input Look up inhibition at 10 µM: COc1cc(C)c(S(=O)(=O)Nc2cccc3ccn(CC(=O)N4CCC5(CC4)CCN(Cc4ccccc4)C5=O)c23)c(C)c1
# output 73

----------
target: B1R receptor of the rat (rB1R) (Rattus norvegicus, UniProt P97583); construct: expressed in transfected cells; host or cells: CHO K1 cells; experiment: Functional investigation on the bradykinin 1 receptor (B1R), FLIPR Ca2+ assay, rB1R cells; type: cell-based; details: CHO-K1, 10 μM test substance; CHO K1 cells with rat B1R; agonist Des-Arg9 bradykinin; % of maximum achievable inhibition; read-out: B1R antagonism, rat [10 μM] % inhibition
measurement_type: inhibition at 10 µM (%)
Answer with a number only, understood to be in %.

Sample records with inhibition at 10 µM:
COc1cc(C)c(S(=O)(=O)Nc2cccc3ccn(CCC(=O)NCCN4CCC(c5cccs5)(N(C)C)CC4)c23)c(C)c1 = 93
COc1cc(C)c(S(=O)(=O)Nc2cccc3ccn(CC(=O)N4CCC(c5cccc(F)c5)(N5CCN(C)CC5)CC4)c23)c(C)c1 = 102
COc1cc(C)c(S(=O)(=O)Nc2cccc3ccn(CCC(=O)N(C)CCCN4CCC(c5ccccc5)(N(C)C)CC4)c23)c(C)c1 = 92

# input # inhibition at 10 µM lookup, item COc1cc(C)c(S(=O)(=O)Nc2cccc3ccn(CC(=O)N(C)CCCN4CCC(c5cccs5)(N(C)C)CC4)c23)c(C)c1
# output 87

# input If you can, please state the reported inhibition at 10 µM value of O=C(Cn1ccc2ccc(N3Cc4cccc(Cl)c4C3=O)cc21)NCCC1CCN(c2ccncc2)CC1 .
# output 88

# input Which inhibition at 10 µM is listed for COc1cc(C)c(S(=O)(=O)Nc2cccc3ccn(CC(=O)N4CCC5(CCC(Oc6ccncc6)CC5)CC4)c23)c(C)c1 ?
# output 99

----------
biological target: B1R receptor of the rat (rB1R) (Rattus norvegicus); construct: expressed in transfected cells; host or cells: CHO K1 cells; assay: Functional investigation on the bradykinin 1 receptor (B1R), FLIPR Ca2+ assay, rB1R cells; assay type: cell-based; conditions: CHO-K1, 10 μM test substance; CHO K1 cells with rat B1R; agonist Des-Arg9 bradykinin; % of maximum achievable inhibition; read-out: B1R antagonism, rat [10 μM] % inhibition
Binning scheme for inhibition at 10 µM: lower level = under 60%, middle level = from 60% up to 70%, upper level = 70% and over

Solved entries:
Cc1cc(S(=O)(=O)Nc2cccc3ccn(CCC(=O)NCCN4CCC(c5cccs5)(N(C)C)CC4)c23)c(C)cc1Cl [G_CC-73] = lower level
COc1cc(C)c(S(=O)(=O)Nc2ccc3ccn(CCC(=O)NCCC4CCN(c5ccncc5)CC4)c3c2)c(C)c1 [G_CC-23] = middle level
Cc1cc(S(=O)(=O)Nc2ccc3ccn(CC(=O)N4CCC5(CC4)CCN(c4ccncc4)CC5)c3c2)c(C)cc1Cl [G_CC-36] = middle level

# input Which bin, given its inhibition at 10 µM, does COc1cc(C)c(S(=O)(=O)Nc2ccc3ccn(CC(=O)NCCN4CCC(c5cccs5)(N(C)C)CC4)c3c2)c(C)c1 [G_CC-30] occupy?
# output lower level

# input Hi there! Could you help me figure out the category for COc1cc(C)c(S(=O)(=O)Nc2cccc3ccn(CC(=O)N4CCC5(CC4)C(=O)N(C)CC5c4ccc(F)cc4)c23)c(C)c1 (centres unmarked) [G_CC-31] please?
# output upper level

# input For this molecule, which bin applies? COc1cc(C)c(S(=O)(=O)Nc2cccc3ccn(CC(=O)N4CCC(N5CCc6cc(CN7CCCCC7)ccc6C5)C4)c23)c(C)c1 (centres unmarked) [Compound G-16]
# output upper level

# input State the class of the molecule shown: COc1cc(C)c(S(=O)(=O)Nc2cccc3ccn(CCC(=O)N4CCC(N5CCN(C)CC5)CC4)c23)c(C)c1 [G_CC-42]
# output middle level

# input Lab note: sort COc1cc(C)c(S(=O)(=O)Nc2cccc3ccn(CCC(=O)N4CCN(CC5CCN(C)CC5)CC4)c23)c(C)c1 [G_CC-43] into the matching inhibition at 10 µM band.
# output upper level

# input Any idea which band O=C(Cn1ccc2cccc(NS(=O)(=O)c3ccccc3C(F)(F)F)c21)N1CCC2(CC1)CCN(c1ccncc1)CC2 [G_CC-53] is in?
# output upper level

# input # classify by inhibition at 10 µM band: Cc1cc(S(=O)(=O)Nc2ccc3ccn(CC(=O)N(C)CCCN4CCC(c5ccccc5)(N(C)C)CC4)c3c2)c(C)cc1Cl [G_CC-15]
# output middle level

# input Class label required: COc1cc(C)c(S(=O)(=O)Nc2cccc3ccn(CC(=O)N4CCC5(CCN(Cc6ccccc6)C5)C4)c23)c(C)c1 (centres unmarked) [G_CC-13]
# output lower level

# input # classify by inhibition at 10 µM band: COc1cc(C)c(S(=O)(=O)Nc2cccc3ccn(CCC(=O)N4CCN(CCCN(C)C)CC4)c23)c(C)c1 [G_CC-44]
# output upper level

The measurements presented in this section are drawn from patent US8492559B2.
